Study system: recombinant WT ezrin protein (Mus musculus, UniProt P26040)
Construct: full-length recombinant ezrin protein was expressed in bacteria
Sequence (P26040 whole entry): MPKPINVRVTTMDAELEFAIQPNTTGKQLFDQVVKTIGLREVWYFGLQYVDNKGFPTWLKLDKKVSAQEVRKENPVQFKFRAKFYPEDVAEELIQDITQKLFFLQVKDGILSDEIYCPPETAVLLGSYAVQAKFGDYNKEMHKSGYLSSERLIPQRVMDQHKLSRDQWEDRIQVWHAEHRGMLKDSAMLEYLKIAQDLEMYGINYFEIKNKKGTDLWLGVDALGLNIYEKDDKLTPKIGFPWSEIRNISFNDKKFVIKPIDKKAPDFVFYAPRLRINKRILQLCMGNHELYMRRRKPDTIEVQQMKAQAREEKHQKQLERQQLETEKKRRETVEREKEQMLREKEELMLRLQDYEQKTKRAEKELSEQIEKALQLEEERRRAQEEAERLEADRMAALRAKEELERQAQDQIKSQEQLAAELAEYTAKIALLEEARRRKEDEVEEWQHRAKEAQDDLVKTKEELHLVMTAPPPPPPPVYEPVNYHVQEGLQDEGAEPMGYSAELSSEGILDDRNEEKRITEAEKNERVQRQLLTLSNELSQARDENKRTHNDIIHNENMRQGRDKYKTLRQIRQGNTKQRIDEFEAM
Protocol notes: SPR direct binding to immobilized recombinant WT ezrin (Biacore)
Assay context: 5 independent experiments
Endpoint label: Kd (µM)
Dear colleague, please return just the value in µM, with no unit written.

Kd for OC(c1cc(C23CC4CC(CC(C4)C2)C3)nc2c(Cl)cc(Cl)cc12)C1CCCCN1 (stereo not shown) [NSC305787] ? 5.85

###

Protein target, amino acids: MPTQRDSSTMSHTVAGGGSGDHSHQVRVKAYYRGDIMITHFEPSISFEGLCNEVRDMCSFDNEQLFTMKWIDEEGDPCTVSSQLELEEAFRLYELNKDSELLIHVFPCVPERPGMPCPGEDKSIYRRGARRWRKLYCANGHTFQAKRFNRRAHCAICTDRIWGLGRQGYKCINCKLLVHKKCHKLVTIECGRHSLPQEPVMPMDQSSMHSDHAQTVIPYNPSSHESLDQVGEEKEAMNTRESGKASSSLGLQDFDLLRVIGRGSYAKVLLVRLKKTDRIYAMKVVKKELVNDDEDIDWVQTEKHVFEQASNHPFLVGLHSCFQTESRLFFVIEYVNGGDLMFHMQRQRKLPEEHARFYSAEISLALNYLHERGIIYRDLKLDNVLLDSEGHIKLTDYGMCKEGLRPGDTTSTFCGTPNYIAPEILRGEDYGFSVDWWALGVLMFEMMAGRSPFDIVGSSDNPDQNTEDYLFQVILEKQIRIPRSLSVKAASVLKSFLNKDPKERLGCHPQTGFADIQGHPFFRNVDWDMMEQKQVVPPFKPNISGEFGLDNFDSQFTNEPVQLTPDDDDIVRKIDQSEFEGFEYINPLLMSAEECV
Endpoint label: Kd (µM)
Dear colleague, please return just the value in µM, with no unit written.

Kd for OC(c1cc(C23CC4CC(CC(C4)C2)C3)nc2c(Cl)cc(Cl)cc12)C1CCCCN1 (stereo not shown) ? 172
